reported_metric: melting point (°C)

A: C/C=C/S(=O)(=O)c1ccc(C(C)(C)C)cc1
B: CC(C)(C)c1ccc(S(=O)(=O)/C=C/C(N)=O)cc1
QUERY: Of A and B , whose reported melting point is the larger number? Respond with the label that goes with your answer.
RESULT: B

---

// values below are reported melting point
Structures can show the parent of a compound that is named as a salt.

1) COc1ccc(NC(=O)C(C)(C)c2ccc(S(=O)(=O)/C=C/C#N)cc2)cc1 | 123 to 126 °C
2) CC(C)(C(=O)NCc1ccc(-n2cccn2)cc1)c1ccc(S(=O)(=O)/C=C/C#N)cc1 (as salt: trifluoroacetic acid salt) | 47 to 53 °C
3) CC(C)(C)c1ccc(S(=O)(=O)/C=C/c2ccccc2)cc1 | 95 °C

QUERY: Give melting point for the following compound: CCOC(=O)/C=C/S(=O)(=O)c1ccc(C(C)(C)C)cc1
RESULT: 88 to 91 °C

QUERY: Give melting point for the following compound: C=C(c1ccccc1)S(=O)(=O)c1ccc(C(C)(C)C)cc1
RESULT: 99 °C

QUERY: Give melting point for the following compound: CC(C)(C(=O)NC1CCCCC1)c1ccc(S(=O)(=O)/C=C/C#N)cc1
RESULT: 191 to 193 °C

QUERY: Give melting point for the following compound: CC(C)(C(=O)N1CCc2ccccc2C1)c1ccc(S(=O)(=O)/C=C/C#N)cc1
RESULT: 54 to 60 °C
